// values below are reported GI50
Test system: EKVX
Method Description: NCI tumour cell line growth inhibition, 48 h
Activity calls are given as the source filed them. Cut-off read from the data, not from the text of the source: active = GI50 up to about 1.1 µM and inactive = higher.
Value Kind: GI50

Compound	Tested System	Result
O=C(CC/C=C(/CS(=O)(=O)c1ccccc1)S(=O)(=O)c1ccccc1)c1ccccc1	EKVX	> 100 µM (inactive)
Cc1cc(C)c2c(c1)Nc1ccccc1P2c1ccccc1 (centres undefined)	EKVX	23.5 µM (inactive)
CC1=NN(c2nc(N)nc(/C(C#N)=C/c3ccccc3O)n2)C(C)(C)C1	EKVX	16 µM (inactive)
Cc1ccc2c(O)cc(-c3cccc4ccccc34)nc2n1	EKVX	0.0338 µM (active)
N=C(N)c1ccc(/N=N\c2c(O)ccc3c2[nH]c2ccccc23)cc1	EKVX	> 59.6 µM (inactive)
CC(C)c1cc2c(O)c(c1)Cc1cc(C(C)C)cc(c1O)Cc1cc(C(C)C)cc(c1O)Cc1cc(C(C)C)cc(c1O)C2	EKVX	> 100 µM (inactive)
COC(=O)C1C(O)C(C)C(O)C(C)(O)/C=C\C=C(C)C(=O)Nc2c(C)c(OC(C)=O)c3c(c2O)C(=O)C(C)=C2OCOC(=C23)C(C)=CC(C)(O)C(O)C(C)C1OC(C)=O (centres undefined)	EKVX	34.1 µM (inactive)
COC(=O)c1ccccc1NC(=O)/C(=N\NC(C)(C)C)C(C#N)c1nc(-c2ccc([N+](=O)[O-])cc2)cs1 (centres undefined)	EKVX	> 100 µM (inactive)
CC(=O)OC1(Sc2ccccc2)CC2[C@H]3COC(C)(C)O[C@H]3CC[C@@]2(C)CC1=O (some centres undefined)	EKVX	57.7 µM (inactive)
C=C1C2CCC3(CCC4C5(C)CCCC4(C=[N+](CCO)C5)C3C2)C1O (centres undefined)	EKVX	> 100 µM (inactive)
COC(=O)c1c(C)c2c(c(C)c1C(=O)OC)-c1c(C)ccc3ccc(C)c-2c13	EKVX	66.4 µM (inactive)
Nc1ncnc2c1nc(Cl)n2C1OC2COP(=O)(O)OC2C1O (centres undefined)	EKVX	22.4 µM (inactive)
COc1cc(C(N)=O)cc(NC(=O)/C=C/c2ccccc2)c1OC	EKVX	89.7 µM (inactive)
CN(C)c1ccc(/C=C(\NC(=O)c2ccccc2)C(=O)Nc2ccccc2C(=O)NN2C(=O)CSC2c2ccc(N(C)C)cc2)cc1 (centres undefined)	EKVX	> 100 µM (inactive)
CC(C)=C[C@@H]1C[C@H](n2cc(C)c(=O)[nH]c2=O)ON1CCO	EKVX	> 100 µM (inactive)
CN(C)c1nc(N(C)C)nc(N(C)C23CC4CC(CC(C4)C2)C3)n1	EKVX	32 µM (inactive)
O=C1C=C/C(=C/[C@H]2SSC=C[C@]23C=CC(=O)C3)C1	EKVX	17.5 µM (inactive)
C/C=C(/COC(C)=O)C(=O)OC1C=C(C=O)C(C)(C)C=C1C (centres undefined)	EKVX	> 100 µM (inactive)
S=C(NCCc1ccccn1)c1nc[nH]c1C(=S)NCCc1ccccn1	EKVX	83.8 µM (inactive)

----------
System: SK-MEL-2
Method Description: NCI tumour cell line growth inhibition, 48 h
Activity calls are given as the source filed them. No stated cut-off is given here; in the data, active = GI50 up to about 1.1 µM and inactive = higher.
Outcomes: YES for active, NO for inactive

Compound	Class Name
CC(=O)Oc1ccc(C(c2ccc(OC(C)=O)cc2)c2ccccn2)cc1 [BISACODYL]	NO
Cc1cc(C)c2c(=O)n(CC(O)CN(Cc3ccccc3)CC(O)Cn3sc4nc(C)cc(C)c4c3=O)sc2n1 (centres undefined)	NO
O=C(c1ccc2ccccc2c1)N(Cc1cccnc1)C(=S)N(Cc1cccnc1)C(=O)c1ccc2ccccc2c1	NO
CCOC(=O)C1(C(F)(F)F)N=C(CC)OC(N2CCOCC2)=N1 (centres undefined)	NO
C=C(C)CNCC(=C)C.Oc1c(Cl)c(Cl)c(Cl)c(Cl)c1Cl	NO
O=C(c1ccc2ccccc2c1)C1(I)S(=O)(=O)OCCOS1(=O)=O	NO
O=C(O)c1cc(/C=C/c2ccc(O)c(O)c2)ccc1O	NO
Nc1nc(N)c2nn(-c3ccc(C(=O)O)cc3)nc2n1	NO
C=CCc1cccc2cc(C(=O)Nc3ccc(C)cc3)c(=N)oc12	NO
COC1=NN2C(OC)(c3ccccc3)c3c(-c4ccccc4)sc(-c4ccccc4)c3C2(c2ccccc2)S1 (centres undefined)	NO
Cc1ccc(S(=O)(=O)OC2CC=CC2)cc1	NO
c1ccc2c(c1)[Se]c1ccccc1[Se]2	NO
CCc1cc(CCC(=O)Nc2ccccc2[N+](=O)[O-])nc(S)n1	NO
CCOC(=O)Cc1csc(N/N=C2\C(=O)Nc3ccccc32)n1	NO
Cc1cc(C(=C2C=CC(=N)C=C2)c2ccc(N)cc2)ccc1N [FUCHSIN, BASIC]	NO
O=C(/C=C/c1ccc(O)cc1)NCCc1ccc(O)cc1 [N-P-COUMAROYL TYRAMINE]	NO
CC(=O)Nc1cc(N(CCOS(C)(=O)=O)CCOS(C)(=O)=O)ccc1N=O	NO
COC1OC(COCc2ccc(Cl)cc2)C(OCc2ccc(Cl)cc2)C1O (centres undefined)	NO
CN(C)c1nc2n(CCO)c(-c3ccccc3)c(-c3ccccc3)nc-2c(=O)n1	NO
c1ccc2c(c1)SCCc1cn[nH]c1-2	NO
COc1cc([C@@H]2c3cc4c(cc3[C@@H](NC(=O)c3ccc(N)cc3)C3COC(=O)[C@@H]32)OCO4)cc(OC)c1O (some centres undefined)	NO
COc1ccc(C(=C2C(=O)N(c3ccccc3)C(=O)C2=C(C)C)c2ccc(OC)cc2)cc1	NO
c1ccc(OCc2nnc(CCCCCCCCc3nnc(COc4ccccc4)o3)o2)cc1	NO
CC(C)(C)OC(=O)NCCCCC1NC(=O)[C@@H]2Cc3c([nH]c4ccccc34)C(C3CCCCC3)N2C1=O (some centres undefined)	NO
CCCCCCSc1nc(N)nc2nc[nH]c12	NO
COC(=O)c1ccccc1NC(=O)/C(=N\NC(C)(C)C)C(C#N)c1nc(-c2ccc([N+](=O)[O-])cc2)cs1 (centres undefined)	NO
CCC(Oc1ccc(OC)c2ccccc(=O)c12)C(=O)O (centres undefined)	NO
Cn1c2ccccc2n2c3ccccc3c3nnc(N)c-3c12	NO
O=c1cc2oc3ccc4ccccc4c3cc-2c(=O)[nH]1	NO
O=C1CC2(c3ccccc3)ON=C(c3ccccc3)N2c2ccccc2N1 (centres undefined)	NO
COC(=O)C(Cc1ccccc1)/N=C/c1c(O)c(O)c(C(C)C)c2cc(C)c(-c3c(C)cc4c(C(C)C)c(O)c(O)c(/C=N/C(Cc5ccccc5)C(=O)OC)c4c3O)c(O)c12 (centres undefined)	NO
CC(=C(c1ccccc1)c1ccccc1)N1C(=O)CC(=O)N1C	NO
CCOc1ccc(/N=N/c2ccc3cc(/C(C)=N/NC(=O)/C(C#N)=C\c4ccc(N(CCC#N)CCC#N)cc4)c(=O)oc3c2)cc1	NO
C#CCNCC(=O)O	NO
Cc1ccccc1N1C(N)=C(C#N)C(C#N)(C#N)C1c1ccccc1 (centres undefined)	NO
O=S1(=O)CC#CC[C@@H](CO)[C@@H](CO)CC#CC1	NO
COc1ccc(C(=O)Nc2ccc(O)c(=O)cc2)cc1	NO
CC(NNC(=O)c1ccncc1)c1ccc(Cl)cc1Cl (centres undefined)	NO
Nc1cc(OCc2ccccc2)c(OCc2ccccc2)cc1C=O	NO
Cc1cc(O)c2c(c1O)C(=O)C13C(=C(O)C4C(O)C1C1C(O)C3C(O)=C3C(=O)c5c(O)cc(C)c(O)c5C(=O)C341)C2=O (centres undefined)	YES
COc1cccc(/N=C/c2cc3cc(Br)ccc3nc2Cl)c1	NO
CN(C)c1nc(N(C)C)nc(N(C)C23CC4CC(CC(C4)C2)C3)n1	NO
Cc1nc2sccn2c1C(=O)NNC(N)=S	NO
CC1(C)C/N=C/C(C)(OCc2ccccc2)C(=O)NC(C)(C)C/N=C/C(C)(OCc2ccccc2)C(=O)N1 (centres undefined)	NO
